Cited source: the nanobody polyreactivity screen of Harvey et al. (2022)

- test.description: yeast display, Sf9 membrane polyspecificity reagent, FACS + sequencing; frameworks hold sequencing errors
assay.endpoint: polyreactivity (PSR sort gate)

>>> result("QVQLVESGGGLVQAGGSLRLSCAASGSTFRFNAMGWYRQAPGKERELVAAITGIGGITYYADSVKGRFTISRDNAKNTVYLQMNSLKPEDTAVYYCNAVAARYSVRNGYSTHYDYWGQGTQVTVSS")
"high polyreactivity"
>>> result("QVQLVESGGGLVQAGGSLRLSCAASGRTFFYYAMGWYRQAPGKERELVAAISTGGSTNYADSVKGRFTISRDNAKNTVYLQMNSLKPEDTAVYYCNADYDKGVRFNFNASFGEFDYWGQGTQVTVSS")
"low polyreactivity"
>>> result("QVQLVESGGGLVQAGGSLRLSCAASGRTFWYYAMGWYRQAPGKERELVAAISYSGDGTYYADSVKGRVTISRDNAKNTVYLPMHSLKPEDTAVYYCAAEWYEPTLPTAWSEYEYWGQGTQVTVSS")
"high polyreactivity"
>>> result("QVQLVESGGGLVQAGGSLRLSCAATGRIFSFYAMGWYRQAPGKERELVAAITWGDGSTYYAVSVKGRFTISRDNAKNTVYLQMNSLKPEDTAVYYCNKTYIDTTVYDVIMDYWGQGTQVTVSS")
"low polyreactivity"
>>> result("QVQLVESGGGLVQAGGSLRLSCAASGFTFQDNAMGWYRHAPGKERELVASITGSGGSTYYADSVKGRFTISRDNAKNTVYLQMNSLKPEDTAVYYCAAETYTRSALVLYGSREMEYWGQGTQVTVSS")
"low polyreactivity"
>>> result("QVQLVESGGGLVQAGGSLRLICAASGITLWTYAMGWYRQAPGKERELVAAIRRGGSTYYADSVKGRFTISRDNAKYTVFLQMNSLKPEDTAVYYCNTVSFYPYYYWGQGTQVTVSS")
"high polyreactivity"
>>> result("QVQLVESGGGLVQAGGSLRLSCAASGYTFGEYAMGWYRQAPGKERELVATISLSDGSTNYADSVKGRFTISRDNAKNTVYLQMNSLKPEDTAVYYCATETQQALYGSVLKYNYWGQGTQVTVSS")
"low polyreactivity"
>>> result("QVQLVESGGGLVQAGGSLRLSCAASGSIYQNAMGWYRQAPGKERELVAAITSSGGRTYADSVKGRFTISRDNAKNTVYLQMNSLKPEDTAVYYCAKDSTADELTGFDYWGQGTQVTVSS")
"low polyreactivity"
>>> result("QVQLVESGGGLVQAGGSLRLSCAASGFTFNRNDMGWYRQAPGKERELVAAISTSGGRTYYADSVKGRFTISRDNAKNTVYLQMNSLKPEDTAVYYCAADGIYPVGVDYWGQGTQVTVSS")
"high polyreactivity"
>>> result("QVQLEESGRGLVQAGVSLRLSCAASGSTFYRYAMGWYRQAPGKERELVAANSQSGARTYYADSVKGRFTISRDNAKNTVYLQINSLKPEDTAVYYCAAYPVVNEFDYWGQGTQVTVSS")
"high polyreactivity"
>>> result("QVQLVESGGGLVQAGGRLRLSSAASGFTLVLNAMGWYIPAPGKERELVAAIRRSAGSTYYADSVKGRFTISRDNAKNTVYLQMNRLKPEDTAVYYCAAGFLWAKYAYGHWGQATQVTVSS")
"low polyreactivity"

* * *

- test.description: yeast display, Sf9 membrane polyspecificity reagent, FACS + sequencing; frameworks hold sequencing errors
assay.endpoint: polyreactivity (PSR sort gate)

>>> result("QVQLVESGGGLVQAGGSLRLSCAASGLTFSRNAMGWYRQAPGKERELVAAINWRGGRTYYADSVKGRFIISRDNAKNTVYLQMNSLKPEDTAVYYCAADPANRCMYYWGQGTQVTVSS")
"high polyreactivity"
>>> result("QVQLEESGGGLVQAGGSLRLSCAASGSIFVHNDMGWYRQAPGKERELVATIDSAGGTYYADSVKGRFTISRDNAKNTVYLQMNSLKPEDTAVYYCAAYGPYVLSIYDYWGQGTQVTVSS")
"low polyreactivity"
>>> result("QVQLVESGGGLGQAGGSLRLSSAASGFTFRRNAMGWYRQAPGKERELVAAINVRDGSTYYADSVKGRFTISRDNAKNTVYLQMNSLKPEDTAVYYCAAEFFQGYYWYYYWGQGTQVTVSS")
"high polyreactivity"
>>> result("QVQLVESGGGLVQAGGSLRLSCAASGRTFPYYAMGLYRQAPGKERELVATITRGGSTYYADSVKGRFTISRDNAKNTVYLQMNSLKPEDTAVYYCAVDAYYEMDYWGQGTQLTVSS")
"low polyreactivity"
>>> result("QVQLVESGGGLVQAGGSLRLSCAASGRIFSDYAMGWYRQAPGKERELVAAISRSGTRTYYADSVKGRFTISRDNAKNTVYLQMNSLKPEDTAVYSCAAKTPYGRAGQEEDYCGQGTQVTVSS")
"high polyreactivity"
>>> result("QVQLVESGGGLVQAGGSLRLSCAASGSTFYSYAMGWYRQAPGKERELVAAIDWSGDNTNYADSVKGRFTISRDNAKNTVYLQMNSLKPEDTAVYYCAADWYYTRRRYNYWGQGTQVTVSS")
"low polyreactivity"
>>> result("QVQLVESVGGLVQAGGSLRLSCAASGSTSRIYAIGRYRKAPGKEREWVAAISRSGGSTYYADSVKGRFTISRDNAKNTVYLQMNSLKPEDTAVYYCAKDASKETSGGDYWGQGTQVTVSS")
"high polyreactivity"
>>> result("QVQLVESGGGLVQAGGSLRLSCAASGFIFRYYAMGWYRQAPGKERELVAAISKRGGRTYYADSVKGRFTISRDNAKNTVYLQMNSLKPEDTAVYYCAAGVGTVAPDMDYWGQGTQVTVSS")
"high polyreactivity"
>>> result("QVQLVESGGGLVQAGGSLRLSCAASGSTFTPNAMGWYRQAPGKERELVAAITTRGSSTYYADSVKGRFTISRDNAKNTVYLQMNSLKPEDTAVYYCNAGVTFRRYDYWGQGTQVTVSS")
"high polyreactivity"
>>> result("QVQLVESGGGLVQAGGSLRLSCAASGRTFVIYAMGWYRQAPGKEREFVAAISRSGGSTYYADSVKGRFTISRDNAKNTVYLQMNSLKPEDTAVYYCNTRTPYWFKSDYWGQGTQVTVSS")
"low polyreactivity"
>>> result("QVQLVESGGGLVQAGGSLRLSCAASGRTFVNYAMGWYRQAPGKEREFVAAITNGGRTNYADSVKGRFTISRDNAKNTVYLQMNSLKPEDTAVYYCAARYRFGGIRRYNYWGQGTQVTVSS")
"high polyreactivity"

* * *

- test.description: yeast display, Sf9 membrane polyspecificity reagent, FACS + sequencing; frameworks hold sequencing errors
assay.endpoint: polyreactivity (PSR sort gate)

>>> result("QVQLVESGGGLVQAGGSLRLSCAASGRIFSGYAMGWYRQAPGKEWELVAAITWSGGSTYADSVKGRFTISRDNAKHTVYLQMNTLKPEDTAVYYCNTSARYNGSYKYDYWGQGTQVTVSS")
"low polyreactivity"
>>> result("QVQLVESGGGLVQAGGSLRLSCDASGSIFRGNAMGCYRQAPGKERELVPDITSGSNTYYADSVKGRFTISRDNAKNTVYLQMNSLKPEDTAVYYCAADGVAYPWWSVYNSFDYWGQGTQVTVSS")
"low polyreactivity"
>>> result("QVQLVESGVGLVQAGGSLRLSCAASGLTFVDNVMGWYRQAPRTERELVADISSSGGSTYADSVKGRFTISRDNAKNTVYFQMNSLKPEDTAVYYCAAGDDSSGEQVDYWGQGTQVTVSS")
"low polyreactivity"
>>> result("QVQLVESGGGLVQAGGSLRLSCAASGRTFRYYAMGWSRQAPGKERELVASITSGGRTYYADSVKGRFTISRDNAKNTVYLQMNSLKPEDTAVYYCAADTPVTASSPPSDYWGQGTQVTVSS")
"high polyreactivity"
>>> result("QVQLVESGGGLVQAGGSLRLSCAASGLIFVQNAMGWYRQAPGKEREFVAAISAGGTRTYYADSVKGRFTISRDNAKNTVYLQMNSVKPEDTAVYYCAAASGYDYWGQGTQGTVSS")
"high polyreactivity"
>>> result("QVQLVESGGALVLAGGSLRLSCAASGFTFQYYAMGWYRQAPGKERELVAAIDWTGGSTYYADSVKGRFTISRDNAKNTVYLQMNSLKPEDTAVYFCNRELTSPRRWHVSRAYDYWGQGTQVTVSS")
"low polyreactivity"
>>> result("QVQLVESGGGLVQAGVSLRLSCAASGSTVGYNAMGWYRQAPGKERELVAAISGNGGSTYADSVKGRFTISRDNAKNTVYLQMNSLKPEDTAVYFCAAVQYGYGLASDSIFDYWGQGTQVTVSS")
"high polyreactivity"
>>> result("QVQLVESGGGLVQAGGSLRLSCASSGFTFRSYAMGWYRQAPGKERELVAAIRWSGDSTYYADSVKGRFTISRDNAKNTVYLQMTSLKPEDTAVYYCAAGTYLRYGYWGQGTQVTVSS")
"high polyreactivity"
>>> result("QVQLVESGGGLVQAGGSLRLSCAASGFTFYGYAMGWYRQAPGKERELVAAITSSGGSTYYADSVKGRFTISRDNAKNTVYLQMNSLKPEDTAVYYCAVVTILVFRYVVPYDYWGQGTQVTVSS")
"high polyreactivity"
>>> result("QVQLVESGGGLVQAGGSLRLSCAASGSTFSANDMGWYRQAPGKEREFDAAITTSDDSTYYADSVKGRFTISRDNAKNTVYLQMNSVKPEDTAVYYCNAYSGYSFFGLGFFYKYDYWGQGTQVTVSS")
"low polyreactivity"
>>> result("QVQLVESGGGLVQAGGSLRLSCAASGRTIYSNAMGGYRQAPGKERELVAAITGSSGSTYYADSVKGRFTISRDNAKNTVYLQMNSLKPEDTAVYYCAASCYCSLVRQLRLRGQGTQVTVSS")
"low polyreactivity"
